Molecular target: T1, GHRH receptor of human pituitary membranes (human, UniProt Q02643)
T1 sequence: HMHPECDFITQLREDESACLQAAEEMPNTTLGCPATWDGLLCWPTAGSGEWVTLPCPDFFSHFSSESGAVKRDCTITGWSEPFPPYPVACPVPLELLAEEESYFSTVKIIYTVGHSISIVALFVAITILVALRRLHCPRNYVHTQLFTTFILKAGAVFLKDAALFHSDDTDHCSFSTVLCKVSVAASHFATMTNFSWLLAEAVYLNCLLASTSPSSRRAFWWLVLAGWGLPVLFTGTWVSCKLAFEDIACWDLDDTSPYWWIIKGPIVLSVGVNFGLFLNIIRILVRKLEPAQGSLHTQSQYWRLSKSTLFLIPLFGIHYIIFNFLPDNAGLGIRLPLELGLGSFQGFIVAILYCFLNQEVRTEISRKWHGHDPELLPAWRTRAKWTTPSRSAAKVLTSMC
Assay: competition vs 125I-[His1,Nle27]hGHRH(1-32)NH2, human pituitary membranes
pIC50: −log10 of the molar value. Non-standard residues stand in square brackets, D forms with d. No end group written: not given here. *: point of attachment. NMeY = CN[C@@H](Cc1ccc(O)cc1)C(=O)O; Agmatine = N=C(N)NCCCCN*; Nle = CCCC[C@H](N)C(=O)O; Orn = NCCC[C@H](N)C(=O)O; Abu = CC[C@H](N)C(=O)O
result-type: pIC50

binder	numeric-result
[NMeY][dA]DAIFTQSYR[Orn]VL[Abu]QLSAR[Orn]LLQDI[Nle]DR-NHMe [P-27403 [N-Me-Tyr^1, D-Ala^2, Gln^8, Orn^12, Abu^15, Orn^21, Nle^27, Asp^28]hGHRH(1-29)NH-CH3]	9.13

P: [NMeY][dA]DAIFTNSYR[Orn]VL[Abu]QLSAR[Orn]LLQDI[Nle]DR-NHEt [P-28421 [N-Me-Tyr^1, D-Ala^2, Orn^12, Abu^15, Orn^21, Nle^27, Asp^28]hGHRH(1-29)NH-CH2-CH3]
Q: [NMeY][dA]DAIFTQSYR[Orn]VL[Abu]QLSAR[Orn]LLQDI[Nle]D[Agmatine] [P-20361 [N-Me-Tyr^1, D-Ala^2, Gln^8, Orn^12, Abu^15, Orn^21, Nle^27, Asp^28, Agm^29]hGHRH(1-29)NH2]
Which value of pIC50 is greater, the one for P or the one for Q ? Kindly give the label for the entry you pick.
Q
(Q: 8.92, P: 8.52)

This collection of values is drawn from patent US20180250358A1.
